Experiment: NCI Yeast Anticancer Drug Screen. Data for the rad50 strain (AID 155);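 also: 0% = growth of vehicle-only cultures of the same strain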
Settings: S. cerevisiae rad50 strain growth inhibition; at 5.0 µM (retest, dose inferred, filed as 0.5); hits give high values
This is part of a sample that, as a whole, favours compounds with a hit. Of some 79,000 tested, about 15% had one in any assay.
property: growth inhibition (%)
Provide only the numeric value, understood in %.

Lookup result for [Hg][c]1ccccc1 ; measured growth inhibition: 99

Lookup result for [C-]#[O+].[C-]#[O+].[CH3][Sn]([CH3])[c]1ccccc1.[Fe+5].[c-]1[c-][c-][cH-][c-]1 ; measured growth inhibition: 7

Lookup result for C[CH2][Sn]([CH2]C)([CH2]C)[CH2]C ; measured growth inhibition: 6

Lookup result for S=C=NC/C(Cl)=C/Cl ; measured growth inhibition: 43
